target: Cyclin-dependent kinase 2 (Homo sapiens, UniProt P24941); assay: Enzymatic Assay
readout: EC50 (nM)

1) CC(C)c1nn(-c2c(Cl)cc(Cl)cc2Cl)c2nc(Cc3ccc(OC(C)(C)C(=O)O)cc3)[nH]c(=O)c12 70
